- Test system: Candida albicans
- assay.details: Antifungal activity against Candida albicans by agar well diffusion method
- Format: functional
- settings: Candida albicans
attribute.measured: MIC

| compound | attribute.measured | result |
| --- | --- | --- |
| OC(Cn1cncn1)(Cn1cncn1)c1ccc(F)cc1F [FLUCONAZOLE] | MIC | 12.5 µg/mL |
| O=C(N/N=C/c1ccc([N+](=O)[O-])cc1)c1ccccc1C(=O)c1ccccc1 | MIC | 84 µg/mL |
| O=C(N/N=C/c1ccccc1O)c1ccc(Cl)cc1 | MIC | 55 µg/mL |
| O=C(N/N=C/c1ccc(Cl)cc1)c1ccccc1C(=O)c1ccccc1 | MIC | 200 µg/mL |
| COc1cc(/C=N/NC(=O)c2ccccc2C(=O)c2ccccc2)ccc1O | MIC | 20 µg/mL |

# evaluate next
Return MIC measured with Candida albicans given this compound: O=C(N/N=C/c1ccc([N+](=O)[O-])cc1)c1ccc(Cl)cc1 20 µg/mL

---

- Tested on: Candida albicans
- assay.details: Antifungal activity against Candida albicans by agar well diffusion method
- Format: functional
- settings: Candida albicans
Each entry below carries its recorded MIC.
Write the value in µg/mL as a bare number.

Before answering, review these 2 worked examples.
| smiles | scale.unit | MIC |
| --- | --- | --- |
| O=C(N/N=C/c1cccc([N+](=O)[O-])c1)c1ccc(Cl)cc1 | µg/mL | 34 |
| O=C(N/N=C/c1c(O)ccc2ccccc12)c1ccc(Cl)cc1 | µg/mL | 34 |

Quick one: MIC of O=C(N/N=C/c1ccccc1)c1ccccc1C(=O)c1ccccc1 ? 100

How about O=C(N/N=C/c1ccccc1O)c1ccccc1C(=O)c1ccccc1 ? 100

Queued: O=C(N/N=C/c1ccccc1[N+](=O)[O-])c1ccccc1C(=O)c1ccccc1 25

Similarly, Cc1ccc(/C=N/NC(=O)c2ccc(Cl)cc2)cc1 ? 20

---

- Tested on: Pseudomonas aeruginosa
- assay.details: Antibacterial activity against Pseudomonas aeruginosa by agar well diffusion method
- Assay type: functional
// reported -logMIC for each item listed
The response must contain the number and no unit.

| smiles | -logMIC |
| --- | --- |
| O=C(N/N=C/c1ccc([N+](=O)[O-])cc1)c1ccc(Cl)cc1 | 1.3 |
| O=C(N/N=C/c1ccc(Cl)cc1)c1ccccc1C(=O)c1ccccc1 | 1.09 |
| O=C(N/N=C/c1ccccc1[N+](=O)[O-])c1ccccc1C(=O)c1ccccc1 | 1.4 |
| O=C(N/N=C/c1ccccc1O)c1ccccc1C(=O)c1ccccc1 | 1.09 |

# input for lookup
GET /values?readout=-logMIC&item= COc1cc(/C=N/NC(=O)c2ccc(Cl)cc2)ccc1O 1.4

---

- Test system: Candida albicans
- assay.details: Antifungal activity against Candida albicans by agar well diffusion method
- Format: functional
- settings: Candida albicans
attribute.measured: MIC (µg/mL)
Express it in µg/mL; write the number only.

Sample answers from the record:
| smiles | attribute.measured | scale.unit | numeric.readout |
| --- | --- | --- | --- |
| COc1cc(/C=N/NC(=O)c2ccc(Cl)cc2)ccc1O | MIC | µg/mL | 84 |
| O=C(N/N=C/c1ccc(O)cc1)c1ccccc1C(=O)c1ccccc1 | MIC | µg/mL | 100 |

Turning now to a further record.
Which MIC value is on record for Cc1ccc(/C=N/NC(=O)c2ccccc2C(=O)c2ccccc2)cc1 ? 50

---

- assay.details: Antioxidant activity assessed as H2O2 scavenging activity after 10 min by UV-Vis spectrophotometric analysis
- Format: functional
Please assign a class to every record based on measured IC50, with ranges interval 1 (below 70 µg/mL), interval 2 (70 µg/mL to below 100 µg/mL), interval 3 (100 µg/mL or more)

| smiles | class.name |
| --- | --- |
| O=C(N/N=C/c1ccc(Cl)cc1)c1ccccc1C(=O)c1ccccc1 | interval 3 |
| O=C(N/N=C/c1ccc(O)cc1)c1ccccc1C(=O)c1ccccc1 | interval 2 |
| COc1cc(/C=N/NC(=O)c2ccc(Cl)cc2)ccc1O | interval 1 |
| O=C(N/N=C/c1cccc([N+](=O)[O-])c1)c1ccc(Cl)cc1 | interval 1 |
| O=C(N/N=C/c1ccccc1O)c1ccc(Cl)cc1 | interval 1 |

Exam item: assign O=C(N/N=C/c1ccc([N+](=O)[O-])cc1)c1ccccc1C(=O)c1ccccc1 to the correct category. interval 3

// same read-out, input: O=C(N/N=C/c1ccccc1)c1ccccc1C(=O)c1ccccc1 interval 3

Please answer likewise for Cc1ccc(/C=N/NC(=O)c2ccccc2C(=O)c2ccccc2)cc1 interval 2

O=C(N/N=C/c1ccccc1O)c1ccccc1C(=O)c1ccccc1 ? interval 3

---

// values below are reported MIC
- Tested on: Staphylococcus aureus
- assay.details: Antibacterial activity against Staphylococcus aureus by agar well diffusion method
- Assay type: functional
- settings: Staphylococcus aureus
# unit: µg/mL | format: bare number

Quick one: MIC of O=C(N/N=C/c1ccc(O)cc1)c1ccccc1C(=O)c1ccccc1 ? 34

Again, but for COc1cc(/C=N/NC(=O)c2ccc(Cl)cc2)ccc1O 18

Same thing, different compound: COc1cc(/C=N/NC(=O)c2ccccc2C(=O)c2ccccc2)ccc1O 34

Similarly, O=C(N/N=C/c1cccc([N+](=O)[O-])c1)c1ccc(Cl)cc1 ? 20

Moving on to O=C(N/N=C/c1c(O)ccc2ccccc12)c1ccc(Cl)cc1 30

Param item: O=C(N/N=C/c1ccc([N+](=O)[O-])cc1)c1ccccc1C(=O)c1ccccc1 34

---

- Tested on: Candida albicans
- assay.details: Antifungal activity against Candida albicans by agar well diffusion method
- Assay type: functional
attribute.measured: -logMIC
Give only the figure.

| smiles | attribute.measured | numeric.readout |
| --- | --- | --- |
| O=C(N/N=C/c1ccccc1[N+](=O)[O-])c1ccccc1C(=O)c1ccccc1 | -logMIC | 1.397 |
| COc1cc(/C=N/NC(=O)c2ccccc2C(=O)c2ccccc2)ccc1O | -logMIC | 1.301 |
| O=C(N/N=C/c1cccc([N+](=O)[O-])c1)c1ccc(Cl)cc1 | -logMIC | 1.531 |
| O=C(N/N=C/c1ccc(O)cc1)c1ccccc1C(=O)c1ccccc1 | -logMIC | 2 |
| O=C(N/N=C/c1ccc([N+](=O)[O-])cc1)c1ccc(Cl)cc1 | -logMIC | 1.301 |

May I ask what -logMIC has been recorded for O=C(N/N=C/c1ccc([N+](=O)[O-])cc1)c1ccccc1C(=O)c1ccccc1 ? 1.924

Also COc1cc(/C=N/NC(=O)c2ccc(Cl)cc2)ccc1O , if possible. 1.924

Query O=C(N/N=C/c1c(O)ccc2ccccc12)c1ccc(Cl)cc1 next 1.531

Input O=C(N/N=C/c1ccccc1O)c1ccccc1C(=O)c1ccccc1 2

Next: O=C(N/N=C/c1ccccc1)c1ccccc1C(=O)c1ccccc1 2

Another compound to check: O=C(N/N=C/c1ccccc1O)c1ccc(Cl)cc1 1.74

---

-logMIC reference
- Test system: Candida albicans
- assay.details: Antifungal activity against Candida albicans by agar well diffusion method
- Assay type: functional
Please reply with the value in numeric form only.

Any idea what -logMIC was measured for O=C(N/N=C/c1ccc(Cl)cc1)c1ccccc1C(=O)c1ccccc1 ? 2.301

Item: Cc1ccc(/C=N/NC(=O)c2ccccc2C(=O)c2ccccc2)cc1 1.698

Next record, please: Cc1ccc(/C=N/NC(=O)c2ccc(Cl)cc2)cc1 1.301

---

A collection of compounds and their measured log10(IC50)
- assay.details: Anti-inflammatory activity assessed as inhibition of albumin denaturation incubated for 15 min at 27 degC followed by incubation at 60 degC for 10 min by UV-Vis spectrophotometric analysis
Parameter value (number): base-10 log of IC50 in µg/mL.

| smiles | numeric.readout |
| --- | --- |
| O=C(N/N=C/c1ccc(O)cc1)c1ccccc1C(=O)c1ccccc1 | 1.30 |
| O=C(N/N=C/c1ccc(Cl)cc1)c1ccccc1C(=O)c1ccccc1 | 1.73 |
| Cc1ccc(/C=N/NC(=O)c2ccccc2C(=O)c2ccccc2)cc1 | 1.08 |
| O=C(N/N=C/c1ccc([N+](=O)[O-])cc1)c1ccc(Cl)cc1 | 1.93 |
| O=C(N/N=C/c1cccc([N+](=O)[O-])c1)c1ccc(Cl)cc1 | 2.09 |
| O=C(N/N=C/c1ccccc1O)c1ccccc1C(=O)c1ccccc1 | 1.54 |

Record request: log10(IC50) value, item O=C(N/N=C/c1c(O)ccc2ccccc12)c1ccc(Cl)cc1 1.90

What do we get for O=C(N/N=C/c1ccccc1[N+](=O)[O-])c1ccccc1C(=O)c1ccccc1 ? 1.88

Cc1ccc(/C=N/NC(=O)c2ccc(Cl)cc2)cc1 , same question. 1.93

Now consider O=C(N/N=C/c1ccccc1)c1ccccc1C(=O)c1ccccc1 . 2.02

Then this compound: COc1cc(/C=N/NC(=O)c2ccccc2C(=O)c2ccccc2)ccc1O 1.00
